ASSAY REMARKS: chemical genetic growth profiling, strain panel (AID 1159580);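 further: tested at 20 µM; growth read once vehicle control cultures reached saturation at 30 °C; 1 = growth at the plate median or of vehicle wells; lower values mean less growth of the strain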
CONDITION SET: S. cerevisiae deletion strains, growth OD, locus YKL101W, strain HSL1, active compounds read low
The whole screen tested about 5,500 compounds, of which about 2,000 (36%) were called active. Not shown: some 18% with an inconclusive outcome. Some of the results follow.
MEASURED ENDPOINT: normalized growth

* O=[N+]([O-])c1ccc(ON=C2CCCCC2)c([N+](=O)[O-])c1 | 0.879
* CCCN(CCC)C(=S)NC(=O)c1cccc([N+](=O)[O-])c1 | 0.958
* Cc1ccc(S(=O)(=O)NC(=O)Nc2ccc(Sc3ccccc3)nc2Sc2ccccc2)cc1 | 0.957
* N/C(CCSc1ccc(Cl)cc1)=N/OC(=O)Nc1ccc(Cl)cc1 | 0.259
* CC(C)(C)c1ccc(N/N=C(\C#N)C(N)=O)cc1 | 0.103
* C/C(Cc1nnn(-c2cc(C)on2)n1)=N/OC(=O)Nc1ccc(Cl)cc1 | 0.929
* Oc1c(Cl)cc(Cl)cc1C=Nc1nc(-c2ccc3ccccc3c2)cs1 | 0.854
* Cc1cccc(NC(=S)N/N=C\c2ccc(F)cc2)c1 | 0.884
* COc1cc(Cl)ccc1N/N=C(/C#N)C(N)=O | 0.106
* CC(=O)/C(C#N)=N\Nc1ccc(F)cc1 | 0.118
* CC1(C)CC(=O)C=C(Sc2nc3ccccc3o2)C1 | 0.925
* CCOC(=O)C1C(c2c(F)cccc2Cl)C(C(=O)OCC)C(O)(C(F)(F)F)NC1(O)C(F)(F)F (stereo unspecified) | 0.989
* CCOC(=O)c1ccc2nc(N=CNO)sc2c1 | 0.907
* CC(C)(C)c1ccc(C(=N)SC(C(=O)C(F)(F)F)c2ccccc2)cc1 (stereo unspecified) | 0.875
* Cc1nn(C)c(C(=O)Sc2ccc(OC(F)(F)F)cc2)c1[N+](=O)[O-] | 0.985
* O=C(NCc1ccc(Cl)c(Cl)c1)c1cccnc1OCC(F)(F)F | 0.968
* N#C/C(=N/Nc1ccc(F)cc1)C(=O)c1ccccc1 | 0.839
* O=C(Oc1cccc2[nH]ccc12)c1ccc(C(F)(F)F)cc1 | 0.788
* Cc1cc(C(=O)NNS(=O)(=O)c2ccc(F)c(Cl)c2)nn1-c1c(Cl)cc(Cl)cc1Cl | 1.02
* N#C/C(=N/Nc1ccccc1)C(=O)c1ccccc1OC(F)(F)F | 0.876
* O=C(c1csc(-c2ccc(Cl)cc2)c1)N1CCCCC1 | 0.884
